Tested on: HT29 colon
Experiment: NCI-60 one-dose screen, 48 h (100 = growth as untreated, 0 = no growth, -100 = all killed)
Settings: 10 µM unless noted
Experimental: Growth inhibition of the HT29 human tumor cell line is measured as a screen for anti-cancer activity. Cells are grown in 96 well plates and exposed to the test compound for 48 hours. Compounds are tested at a single concentration, which is 10^-5 M for most compounds. The reported endpoint is percent growth (GI% or GIPRCNT), where numbers from 0 - 100% represent growth inhibition, and numbers from -100% - 0 represent cell death. For example, a value of 40 represents 60% growth inhibition. […]
The panel holds about 83,000 compounds, 20% with a hit somewhere; the sample as a whole holds those more often.
Listing of recorded growth by entry.
Kindly provide the numeric value in % only, without the unit symbol.

Recorded results for 6 molecules are shown here.
[
  {
    "molecule": "COc1cccc2c(N=NC(=O)c3ccc(S(N)(=O)=O)cc3)c(O)[nH]c12",
    "property": "growth",
    "measurement_unit": "%",
    "recorded_result": 106
  },
  {
    "molecule": "Cc1cc2nc(-c3c(-c4ccc(F)cc4)nc4sccn34)[nH]c2cc1C",
    "property": "growth",
    "measurement_unit": "%",
    "recorded_result": 96.3
  },
  {
    "molecule": "CN(C)c1ccc(C(=NO)c2ccc(N(C)C)cc2)cc1",
    "property": "growth",
    "measurement_unit": "%",
    "recorded_result": 5.39
  },
  {
    "molecule": "COc1cc(C(=O)c2c(-c3ccccc3)oc3c(OC)cccc23)cc(OC)c1O",
    "property": "growth",
    "measurement_unit": "%",
    "recorded_result": 6.79
  },
  {
    "molecule": "COc1ccc(C2C(C#N)=C(N)Oc3c2sc2c(Br)cccc32)cc1 (stereo not given)",
    "property": "growth",
    "measurement_unit": "%",
    "recorded_result": 5
  },
  {
    "molecule": "COc1ccc(-c2nnc(SCC(=O)Nc3ccc(/C(C)=N\\O)cc3)n2-c2ccccc2)cc1OC",
    "property": "growth",
    "measurement_unit": "%",
    "recorded_result": 91.2
  }
]

growth on HT29 colon for O=C(CCCCCCCCC(=O)N/N=C\c1cc(Cl)ccc1O)N/N=C\c1cc(Cl)ccc1O is 58.9

growth on HT29 colon for O=c1[nH]cnc2c1C(c1ccc(Br)cc1)c1sc3c(F)cccc3c1O2 (stereo not given) is 104

growth on HT29 colon for CC(=O)c1cc(-c2ccccc2N)n(-c2ccc3c(c2)OCO3)c1C is 6.88

growth on HT29 colon for CCOC(=O)c1c2c(n3c1NCC3)-c1ccccc1C2=O is 98.1
